test system: C. albicans; test: Minimum Inhibitory Concentration (MIC), CLSI M27-A2; assay type: cell-based; conditions: rating scale
MEASURED QUANTITY: Candida MIC Rating

Consider the reported Candida MIC Rating for these molecules:
molecule="CC(F)(c1ccc(-c2ccc(Cl)cc2)cn1)C(O)(Cn1cnnn1)c1ccc(F)cc1F (stereo not shown) [Example 55]" measured_quantity="Candida MIC Rating" result="A (≤0.5)"
molecule="OC(Cn1cnnn1)(c1ccc(F)cc1F)C(F)(F)c1ccc(-c2ccc(OCC(F)(F)F)cc2)cn1 (stereo not shown) [Example 39]" measured_quantity="Candida MIC Rating" result="C (>1.5-4)"
molecule="CC(F)(c1ccc(-c2ccc(C(F)(F)F)cc2)cn1)C(O)(Cn1cnnn1)c1ccc(F)cc1F (stereo not shown) [Example 52]" measured_quantity="Candida MIC Rating" result="C (>1.5-4)"
molecule="CC(F)(c1ccc(-c2ccc(OCC(F)(F)F)cc2)cn1)C(O)(Cn1cnnn1)c1ccc(F)cc1F (stereo not shown) [Example 57]" measured_quantity="Candida MIC Rating" result="A (≤0.5)"
molecule="CC(F)(c1ccc(-c2ccc(F)cc2)cn1)C(O)(Cn1cnnn1)c1ccc(F)cc1F (stereo not shown)" measured_quantity="Candida MIC Rating" result="A (≤0.5)"

Each of the following entries comes with a recorded value; kindly state Candida MIC Rating for each.
1. CC(F)(c1ccc(-c2ccc(Cl)cc2)cn1)C(O)(Cn1cnnn1)c1ccc(F)cc1F (stereo not shown) [Example 54]
2. CC(F)(c1ccc(-c2ccc(OC(F)(F)F)cc2)cn1)C(O)(Cn1cnnn1)c1ccc(F)cc1F (stereo not shown)
3. CC(F)(c1ccc(-c2ccc(OCC(F)(F)F)cc2)cn1)C(O)(Cn1cnnn1)c1ccc(F)cc1F (stereo not shown) [Example 56]

Marked response:
1. C (>1.5-4)
2. A (≤0.5)
3. C (>1.5-4)

Exam item: Return reported Candida MIC Rating. Input molecule: OC(Cn1cnnn1)(c1ccc(F)cc1F)C(F)(F)c1ccc(-c2ccc(OCC(F)(F)F)cc2)cn1 (stereo not shown) [Example 11]
Marked response: A (≤0.5)
